Measured values drawn from patent US6635641B2 for this set.

Molecular target: unphosphorylated VEGF-R2Δ50 (FLVK) (Homo sapiens, UniProt P35968, DEL940-989/E990V)
Construct: VEGF-R2Δ50 contains residues 806-939 and 990-1171; made in house; host or cells: baculovirus/insect cells
Sequence (P35968 with tags, fused parts or gaps DEL940-989/E990V limits assumed): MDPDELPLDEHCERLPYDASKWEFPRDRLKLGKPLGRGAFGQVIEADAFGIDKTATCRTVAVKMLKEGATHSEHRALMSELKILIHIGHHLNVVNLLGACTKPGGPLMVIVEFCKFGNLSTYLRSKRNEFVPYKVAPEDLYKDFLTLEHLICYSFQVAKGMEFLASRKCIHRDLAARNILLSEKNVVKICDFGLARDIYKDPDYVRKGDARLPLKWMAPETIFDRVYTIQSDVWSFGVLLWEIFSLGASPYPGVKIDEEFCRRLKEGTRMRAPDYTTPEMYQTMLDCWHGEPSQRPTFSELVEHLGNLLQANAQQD
Experiment: VEGF-R2 coupled spectrophotometric assay, unphosphorylated construct (FLVK)
Assay type: biochemical
Conditions: unphosphorylated VEGF-R2 construct
Structures can show the parent of a compound that is named as a salt.
Binary call on Ki with cut-off 3 nM: strictly below means 1.0, and equality or higher means 0.0.

- O=C(Nc1ccc(N2CCNCC2)c(C(F)(F)F)c1)c1ccc(F)c(OCc2cncc(-c3ccco3)c2)c1 [EE-1, dihydrochloride]: 0.0
- CC(C)(C)c1cc(C(=O)Nc2cccc(CSc3ncnc4[nH]ncc34)c2)ccc1O [Example V-4]: 1.0
- O=C(Nc1cccc(CSc2ncnc3[nH]ncc23)c1)Nc1cc(C(F)(F)F)cc(C(F)(F)F)c1 [Example V-7]: 1.0
- CC(C)(C)c1cc(C(=O)Nc2cccc(OCc3cccnc3)c2)ccc1O [Example X-4]: 0.0
- CC(=O)Oc1ccc(C(=O)Nc2cccc(OCc3cccnc3)c2)cc1C(C)(C)C [Example X-2]: 0.0
- CC(=O)Oc1ccc(C(=O)Nc2cccc(OCc3cncc4ccccc34)c2)cc1C(C)(C)C [Example X-3]: 1.0
- CC(=O)Nc1ccc(CCc2cccc(C(=O)Nc3ccc(N4CCNCC4)c(C(F)(F)F)c3)c2)cn1 [AA-1, dihydrochloride]: 1.0
- CC(C)(C)c1ccc(C(=O)Nc2cccc(CSc3ncnc4[nH]ncc34)c2)cc1 [Example V-5]: 1.0

====

Target: unphosphorylated VEGF-R2Δ50 (FLVK) (Homo sapiens, UniProt P35968, DEL940-989/E990V)
Construct: VEGF-R2Δ50 contains residues 806-939 and 990-1171; made in house; host or cells: baculovirus/insect cells
Test: VEGF-R2 coupled spectrophotometric assay, unphosphorylated construct (FLVK)
Format: biochemical
assay-metric: log10(Ki) (log10 of the value in nM)

• O=C(Nc1ccc(N2CCCC2)c(C(F)(F)F)c1)c1cccc(CCc2cc(Nc3cccnc3)n[nH]2)c1 = -0.96
• COc1cc(NC(=O)c2cccc(SCc3cc(Nc4ccccc4)n[nH]3)c2)cc(OC)c1OC = -0.02
• O=C(Nc1ccc(N2CCOCC2)c(C(F)(F)F)c1)c1ccc(F)c(OCc2cnc3ccccc3c2)c1 = 0.36
• O=C(Nc1ccc(N2CCNCC2)c(C(F)(F)F)c1)c1ccc(F)c(OCc2cncc3ccccc23)c1 = 0.94
• O=C(Nc1cc(Cl)c(N2CCNCC2)c(Cl)c1)c1ccc(F)c(OCc2cccnc2)c1 = 1.14
• Cc1cc(C)c2cc(NC(=O)c3cccc(OCc4cncc5ccccc45)c3)ccc2n1 = 0.23
• CC(=O)Nc1ccc(COc2cccc(C(=O)Nc3ccc4nc(C)ccc4c3)c2)cn1 = 0.11
• Cc1cc(NC(=O)c2cccc(C3CC3c3cc(Nc4ccccc4)n[nH]3)c2)ccc1C(C)C (stereo not drawn) = -0.72
• O=C(Nc1ccc(N2CCNCC2)c(C(F)(F)F)c1)c1ccc(F)c(OCc2cnc3ccccc3c2)c1 = 0.87

====

Measured pKi, listed per entry.
Biological target: FGF-R1 intracellular kinase domain (Homo sapiens, UniProt P11362, C488A/C584S/L457V)
Construct: starting from the endogenous methionine residue 456 to glutamate 766
Sequence (P11362 456-766 L457V/C488A/C584S): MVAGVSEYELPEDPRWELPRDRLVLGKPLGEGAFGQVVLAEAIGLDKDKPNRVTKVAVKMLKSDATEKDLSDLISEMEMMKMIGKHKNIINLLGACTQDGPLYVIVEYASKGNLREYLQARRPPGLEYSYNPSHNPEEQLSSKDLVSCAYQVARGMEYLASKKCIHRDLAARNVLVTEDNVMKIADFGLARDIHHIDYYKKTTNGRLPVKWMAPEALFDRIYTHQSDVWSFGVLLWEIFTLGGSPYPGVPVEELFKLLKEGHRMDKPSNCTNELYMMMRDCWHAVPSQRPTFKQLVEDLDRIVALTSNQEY
Experiment: FGF-R spectrophotometric assay;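 further: coupled PK/LDH enzyme assay: ADP from kinase phosphoryl transfer drives NADH oxidation, read as absorbance decrease at 340 nm, with 2 mM ATP and poly(E4Y1) substrate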
Details: read-out: FGF-P Ki
pKi: −log10 of the molar value.
assay-metric: pKi

* COc1ccc(Nc2cc(CCc3cccc(C(=O)Nc4ccc(N5CCCC5)c(C(F)(F)F)c4)c3)[nH]n2)cn1 | 7.70
* O=C(Nc1ccc(N2CCCC2)c(C(F)(F)F)c1)c1cccc(CCc2cc(Nc3cccnc3)n[nH]2)c1 | 7.72
* Cc1cc(NC(=O)c2ccc(F)c(OCc3cncc4ccccc34)c2)ccc1C(C)C | 7.59
* COc1cc(NC(=O)c2cccc(CSc3ncnc4[nH]ncc34)c2)cc(OC)c1OC | 4.06
* COc1ccc(Nc2cc(CCc3cccc(C(=O)Nc4cc(Cl)c(N(C)C)c(Cl)c4)c3)[nH]n2)cn1 | 7.64
* COc1ccc(Nc2cc(COc3cc(C(=O)Nc4ccc(N5CCCC5)c(C(F)(F)F)c4)ccc3F)[nH]n2)cn1 | 7.24

====

pKi values by entry
Target: unphosphorylated VEGF-R2Δ50 (FLVK) (Homo sapiens, UniProt P35968, DEL940-989/E990V)
Construct: VEGF-R2Δ50 contains residues 806-939 and 990-1171; made in house; host or cells: baculovirus/insect cells
Experiment: VEGF-R2 coupled spectrophotometric assay, unphosphorylated construct (FLVK)
Format: biochemical
pKi: −log10 of the molar value. Structures can show the parent of a compound that is named as a salt.
assay-metric: pKi

- Cc1ccc2cc(NC(=O)c3cccc(OCc4cncc5ccccc45)c3)ccc2n1 [Example K-3, hydrochloride]: 8.47
- Cc1cc(NC(=O)c2ccc(F)c(OCc3cncc4ccccc34)c2)ccc1C(C)C: 9.64
- Cc1cc(NC(=O)c2cc(CCc3cncc4ccccc34)c(F)cc2F)ccc1C(C)C: 8.85
- Cl.O=C(Nc1ccc(N2CCOCC2)c(C(F)(F)F)c1)c1ccc(F)c(OCc2cncc3ccccc23)c1: 8.47
- CC1(C)OC(C)(C)c2cc(NC(=O)c3cccc(OCc4cncc5ccccc45)c3)ccc21: 8.16
- Cc1cc(NC(=O)c2cccc(CSc3ncnc4[nH]ncc34)c2)ccc1C(C)C: 9.00
- Cc1ccc(C(=O)Nc2cccc(CSc3ncnc4[nH]ncc34)c2)cc1Br: 8.70
- COc1ccc(/C=C/c2cc(CCc3cccc(C(=O)Nc4ccc(C(C)C)c(C)c4)c3)[nH]n2)cc1OC: 9.51

====

System: lung cancer cells (line MV522)
Assay: Cancer cell proliferation (MV522) assay (MTT)
Assay type: cell-based
Settings: MV522 lung cancer cells
assay-metric: IC50 (µM)

- CC(C)(C)c1cc(C(=O)Nc2cccc(OCc3cccnc3)c2)ccc1O: 6.1
- CC(C)(C)c1cc(C(=O)Nc2cccc(OCc3cncc4ccccc34)c2)ccc1O: 3.7
- CC(=O)Oc1ccc(C(=O)Nc2cccc(OCc3cncc4ccccc34)c2)cc1C(C)(C)C: 4.6

====

Readings of inhibition at 0.05 µM for the listed compounds
Target: unphosphorylated VEGF-R2Δ50 (FLVK) (Homo sapiens, UniProt P35968, DEL940-989/E990V)
Construct: VEGF-R2Δ50 contains residues 806-939 and 990-1171; made in house; host or cells: baculovirus/insect cells
Test: VEGF-R2 coupled spectrophotometric assay, unphosphorylated construct (FLVK)
Assay type: biochemical
Conditions: @ 50 nM; read-out: FLVK percent inhibition
assay-metric: inhibition at 0.05 µM (%)

- O=C(Nc1ccc(-n2cncn2)c(C(F)(F)F)c1)c1ccc(F)c(OCc2cccnc2)c1: 50
- CCC(C(=O)Nc1cccc(CSc2ncnc3[nH]ncc23)c1)c1ccccc1C (racemic): 30
- O=C(Nc1cc(Cl)c(N2CCCC2)c(Cl)c1)c1ccc(F)c(OCc2cccnc2)c1: 59
- Cc1cc(NC(=O)c2cc(CCc3cncc4ccccc34)c(F)cc2Cl)ccc1C(C)C: 19
- CN1CCN(c2ccc(NC(=O)c3ccc(F)c(OCc4cccnc4)c3)cc2C(F)(F)F)CC1: 19
- O=C(Nc1cc(Cl)c(-n2ccnc2)c(Cl)c1)c1ccc(F)c(OCc2cccnc2)c1: 62
- O=C(Nc1cccnc1)Nc1cccc(CSc2ncnc3[nH]ncc23)c1: 0
- O=C(Nc1cccc(CSc2ncnc3[nH]ncc23)c1)c1ccc2cc[nH]c2c1: 17

====

Molecular target: unphosphorylated VEGF-R2Δ50 (FLVK) (Homo sapiens, UniProt P35968, DEL940-989/E990V)
Construct: VEGF-R2Δ50 contains residues 806-939 and 990-1171; made in house; host or cells: baculovirus/insect cells
Assay: VEGF-R2 coupled spectrophotometric assay, unphosphorylated construct (FLVK);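 further: Baculovirus-expressed cytosolic kinase domain, ADP formation linked via pyruvate kinase and lactate dehydrogenase to NADH oxidation, read as falling absorbance at 340 nm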
Type: biochemical
Counter-ions that a name gives are not always drawn.
log10 Ki overview
assay-metric: log10 Ki (log10 of the value in nM)

• O=C(Nc1cc(Cl)c(N2CCOCC2)c(Cl)c1)c1ccc(F)c(OCc2cccnc2)c1 = 0.49
• Cc1cc(NC(=O)c2cccc(CCc3cncc4ccccc34)c2)ccc1C(C)C = -0.12
• COc1ccc(Nc2cc(CCc3cccc(C(=O)Nc4ccc(C(C)C)c(C)c4)c3)[nH]n2)cn1 = -1.00
• Cc1cc(NC(=O)c2cccc(CSc3cnccn3)c2)ccc1C(C)C = 0.65
• COc1ccc(Nc2cc(CCc3cccc(C(=O)Nc4ccc(N(C)C)c(C(F)(F)F)c4)c3)[nH]n2)cn1 = -0.46
• O=C(Nc1ccc(N2CCNCC2)c(C(F)(F)F)c1)c1ccc(F)c(OCc2cncc(Br)c2)c1 = 0.82
• COc1ccc(Nc2cc(CCc3cccc(C(=O)Nc4ccc(N5CCNCC5)c(C(F)(F)F)c4)c3)[nH]n2)cn1 = 0.48
• O=C(Nc1cccc(OC(F)(F)F)c1)c1cccc(OCc2cncc3ccccc23)c1 = 0.38
• COc1ccc(Nc2cc(COc3cc(C(=O)Nc4ccc(N5CCCC5)c(C(F)(F)F)c4)ccc3F)[nH]n2)cn1 = -0.17
• O=C(Nc1ccc(N2CCNCC2)c(C(F)(F)F)c1)c1ccc(F)c(OCc2cccnc2)c1 = 1.22
• CC1CCc2cc(NC(=O)c3ccc(F)c(OCc4cncc5ccccc45)c3)ccc2N1 (stereo not drawn) [Example O-3, bistrifluoroacetic acid salt] = 0.76
• COc1ccc(Nc2cc(CCc3cccc(C(=O)Nc4ccc(N5CCCC5)c(C(F)(F)F)c4)c3)[nH]n2)cn1 = -1.46
• Cc1cc(NC(=O)c2cccc(OCc3cncc4ccccc34)c2)ccc1C(C)C = 0.20
• COc1ccc(Nc2cc(CCc3cccc(C(=O)Nc4ccc(N5CCN(C(=O)OC(C)(C)C)CC5)c(C(F)(F)F)c4)c3)[nH]n2)cn1 = 0.40
• COc1ccc(Nc2cc(COc3cc(C(=O)Nc4ccc(-n5ccnc5)c(C(F)(F)F)c4)ccc3F)[nH]n2)cn1 = 0.20
